- target-under-test: mutant CRAF enzyme (RAF1 Y340D and Y341D) (Homo sapiens (Human), UniProt P04049, Y340D/Y341D)
- Sequence (P04049 whole entry Y340D/Y341D): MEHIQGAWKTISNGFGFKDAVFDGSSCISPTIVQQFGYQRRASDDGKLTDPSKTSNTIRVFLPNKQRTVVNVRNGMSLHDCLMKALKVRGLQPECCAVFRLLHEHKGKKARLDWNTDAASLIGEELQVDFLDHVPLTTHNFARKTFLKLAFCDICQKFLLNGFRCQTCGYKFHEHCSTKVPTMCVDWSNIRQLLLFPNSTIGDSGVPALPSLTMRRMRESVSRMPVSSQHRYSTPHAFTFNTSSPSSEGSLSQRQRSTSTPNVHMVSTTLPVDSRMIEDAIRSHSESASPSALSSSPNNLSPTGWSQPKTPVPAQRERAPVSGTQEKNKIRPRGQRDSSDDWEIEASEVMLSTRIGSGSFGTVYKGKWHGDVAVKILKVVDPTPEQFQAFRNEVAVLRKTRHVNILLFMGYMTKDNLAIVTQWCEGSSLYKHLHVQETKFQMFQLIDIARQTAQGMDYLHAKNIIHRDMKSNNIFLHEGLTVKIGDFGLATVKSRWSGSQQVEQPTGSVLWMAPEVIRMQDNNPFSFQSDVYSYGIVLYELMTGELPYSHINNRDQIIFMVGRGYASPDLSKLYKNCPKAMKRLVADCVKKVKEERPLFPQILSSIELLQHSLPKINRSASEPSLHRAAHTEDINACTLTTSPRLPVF
- experiment-description: RAF inhibition assay (TB-PMAP2K1 kit), mutant CRAF
- Type: biochemical
- experimental-setup: FLUORESCEIN-MAP2K1 substrate, 60 min reaction
Group membership follows IC50 per the scheme low end (below 4 nM), middle (4 nM to below 10 nM), high end (10 nM or more)

Entry `Cc1ccc2c(Nc3c(F)cc(F)cc3F)nccc2c1NC(=O)c1cccc2c(N)ncnc12` belongs to which category?
middle

Hello team, could you let me know which band the following molecule falls into: `Cc1ccc2c(Nc3ccc(F)cc3F)nccc2c1NC(=O)c1cccc2c(N)ncnc12`
middle

Bin this entry: `Cc1ccc2c(Nc3ccccc3F)nccc2c1NC(=O)c1cccc2c(N)ncnc12`
low end

Which category does the recorded IC50 put `Cc1ccc2c(Cc3cccc(C(F)(F)F)c3)nccc2c1NC(=O)c1csc2c(N)ncnc12` in?
high end

Exercise: read the entry `Cc1ccc2c(Nc3cc(S(C)(=O)=O)ccc3F)nccc2c1NC(=O)c1cccc2c(N)ncnc12` and state which class it falls under.
middle

Lab note: sort `Cc1ccc2c(Nc3cc(F)c(F)cc3F)nccc2c1NC(=O)c1cccc2c(N)ncnc12` into the matching IC50 band.
high end

Classify this molecule: `Cc1ccc2c(Nc3cccc(Cl)c3F)nccc2c1NC(=O)c1cc(F)cc2c(N)ncnc12`
high end

Would you mind sorting `Cc1ccc2c(Nc3ccc(F)cc3F)nccc2c1NC(=O)c1cc(F)cc2c(N)ncnc12` into the appropriate category?
middle

Please classify: `Cc1ccc2c(Nc3ccc(F)c(Cl)c3)nccc2c1NC(=O)c1cnc2c(N)ncnn12`
low end

Place this molecule in its band: `Cc1ccc2c(Nc3cccc(Cl)c3F)nccc2c1NC(=O)c1cccc2c(N)ncnc12`
middle

Please indicate the class for `Cc1ccc2c(Nc3cccc(C(F)(F)F)c3)nccc2c1NC(=O)c1cnc2c(N)ncnn12` based on its IC50.
middle

Category of `Cc1ccc2c(Nc3cc(Cl)ccc3F)nccc2c1NC(=O)c1cccc2c(N)ncnc12` :
middle

Would you mind sorting Cc1ccc2c(C(O)c3ccc(Cl)cc3F)nccc2c1NC(=O)c1csc2c(N)ncnc12 (stereo not drawn) into the appropriate category?
low end

Could you place `Cc1ccc2c(Nc3cccc(Cl)c3F)nccc2c1NC(=O)c1ccc(F)c2c(N)ncnc12` in its proper category? Many thanks.
middle

Which IC50 band matches Cc1ccc2c(C(C)Oc3ccccc3)nccc2c1NC(=O)c1csc2c(N)ncnc12 (stereo not drawn) ?
high end

Sort into band: `Cc1ccc2c(C(=O)c3cccc(C(F)(F)F)c3)nccc2c1NC(=O)c1csc2c(N)ncnc12`
high end

Which class does `Cc1ccc2c(Nc3ccc(Cl)cc3F)nccc2c1NC(=O)c1cccc2c(N)ncnc12` fall in?
high end

Bin? `Cc1ccc2c(Nc3cccc(Cl)c3)nccc2c1NC(=O)c1cccc2c(N)ncnc12`
high end

For this molecule, which bin applies? `COc1ccc(Nc2nccc3c(NC(=O)c4cccc5c(N)ncnc45)c(C)ccc23)c(F)c1`
low end

Class (by measured IC50) for `Nc1ncnc2c(C(=O)Nc3c(F)ccc4c(Nc5cccc(Cl)c5F)nccc34)cccc12`
high end
